FYI, the data here is from ChEMBL document CHEMBL1145040.

// pKi lookup, one value per entry
study_target: Norepinephrine transporter (Rattus norvegicus)
Sequence (Q9WTR4 whole entry): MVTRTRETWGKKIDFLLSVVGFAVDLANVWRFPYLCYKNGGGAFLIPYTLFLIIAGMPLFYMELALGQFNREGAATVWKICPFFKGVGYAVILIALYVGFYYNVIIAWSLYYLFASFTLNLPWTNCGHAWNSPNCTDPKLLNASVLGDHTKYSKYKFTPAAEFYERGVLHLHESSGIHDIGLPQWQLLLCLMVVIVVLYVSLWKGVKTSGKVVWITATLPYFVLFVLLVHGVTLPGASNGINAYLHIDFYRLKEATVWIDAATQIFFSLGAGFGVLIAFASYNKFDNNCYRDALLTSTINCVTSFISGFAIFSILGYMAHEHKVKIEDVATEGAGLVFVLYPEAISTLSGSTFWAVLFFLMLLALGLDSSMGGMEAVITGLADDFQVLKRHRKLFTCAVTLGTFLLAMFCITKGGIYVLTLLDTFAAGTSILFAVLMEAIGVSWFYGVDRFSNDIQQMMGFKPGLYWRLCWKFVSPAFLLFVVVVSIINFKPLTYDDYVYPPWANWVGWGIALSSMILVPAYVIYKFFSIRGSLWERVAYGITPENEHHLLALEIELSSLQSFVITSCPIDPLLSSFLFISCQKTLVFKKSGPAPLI
method_notes: Ability to inhibit [3H]NE reuptake at norepinephrine transporter from rat brain
pKi: −log10 of the molar value.

{"compound": "COC(=O)[C@@H]1C2CCC3CCC1N(C/C2=C\\c1ccc(-c2ccccc2)cc1)C3 (stereo not given in full)", "censoring_sign": "=", "pKi": 7.92}
{"compound": "COC(=O)C1C2CCC3CCC1N(C/C2=C\\c1ccc(-c2ccc(N(C)C)cc2)cc1)C3 (stereo not given)", "censoring_sign": "=", "pKi": 7.24}
{"compound": "COC(=O)C1C2CCC3CCC1N(C/C2=C\\c1ccc(-c2ccc(C)cc2)cc1)C3 (stereo not given)", "censoring_sign": "=", "pKi": 7.64}
{"compound": "COC(=O)C1C2CCC3CCC1N(C/C2=C\\c1ccc(-c2ccccc2)s1)C3 (stereo not given)", "censoring_sign": "=", "pKi": 7.87}
{"compound": "COC(=O)C1C2CCC3CCC1N(C/C2=C\\c1ccc(-c2ccc(C(F)(F)F)cc2)cc1)C3 (stereo not given)", "censoring_sign": "=", "pKi": 5.94}
{"compound": "COC(=O)C1C2CCC3CCC1N(C/C2=C\\c1ccc(-c2cc(Cl)cc(Cl)c2)cc1)C3 (stereo not given)", "censoring_sign": "=", "pKi": 7.21}
{"compound": "COC(=O)C1C2CCC3CCC1N(C/C2=C\\c1ccc(-c2ccco2)cc1)C3 (stereo not given)", "censoring_sign": "=", "pKi": 7.86}
{"compound": "COC(=O)C1C2CCC3CCC1N(C/C2=C\\c1ccc(-c2ccc(C#N)cc2)cc1)C3 (stereo not given)", "censoring_sign": "=", "pKi": 7.49}
{"compound": "COC(=O)C1C2CCC3CCC1N(C/C2=C\\c1ccc(-c2ccc(I)cc2)cc1)C3 (stereo not given)", "censoring_sign": "=", "pKi": 6.94}
{"compound": "COC(=O)C1C2CCC3CCC1N(C/C2=C\\c1ccc(-c2ccc(OC)cc2)s1)C3 (stereo not given)", "censoring_sign": "=", "pKi": 7.99}
{"compound": "CC(=O)OCC1C2CCC3CCC1N(C/C2=C\\c1ccc(-c2ccccc2)cc1)C3 (stereo not given)", "censoring_sign": "=", "pKi": 7.24}
{"compound": "COC(=O)C1C2CCC3CCC1N(C/C2=C\\c1ccc(-c2ccc(Cl)cc2)cc1)C3 (stereo not given)", "censoring_sign": "=", "pKi": 6.13}
{"compound": "O=C(OCC1C2CCC3CCC1N(C/C2=C\\c1ccc(-c2ccc(Cl)c(Cl)c2)c(Cl)c1)C3)c1ccccc1 (stereo not given)", "censoring_sign": "<", "pKi": 5.00}
{"compound": "COC(=O)C1C2CCC3CCC1N(C/C2=C\\c1ccc(-n2cccc2)cc1)C3 (stereo not given)", "censoring_sign": "=", "pKi": 7.34}
{"compound": "COC(=O)C1C2CCC3CCC1N(C/C2=C\\c1ccc(-c2ccc(C)s2)cc1)C3 (stereo not given)", "censoring_sign": "=", "pKi": 7.65}
{"compound": "COC(=O)C1C2CCC3CCC1N(C/C2=C\\c1ccc(-c2ccccc2)c(Cl)c1)C3 (stereo not given)", "censoring_sign": "=", "pKi": 6.00}
{"compound": "COC(=O)C1C2CCC3CCC1N(C/C2=C\\c1ccc(-c2ccc(OC)cc2)cc1)C3 (stereo not given)", "censoring_sign": "=", "pKi": 7.41}
{"compound": "COC(=O)C1C2CCC3CCC1N(C/C2=C\\c1ccc(-c2ccsc2)cc1)C3 (stereo not given)", "censoring_sign": "=", "pKi": 7.69}
{"compound": "OC[C@@H]1C2CCC3CCC1N(C/C2=C\\c1ccc(-c2ccccc2)cc1)C3 (stereo not given in full)", "censoring_sign": "=", "pKi": 6.74}
{"compound": "COC(=O)C1C2CCC3CCC1N(C/C2=C\\c1ccc(-c2ccc(Cl)cc2Cl)cc1)C3 (stereo not given)", "censoring_sign": "=", "pKi": 6.33}
